# pIC50 per entry
- measured_target: Human erythrocyte AChE (Homo sapiens, UniProt P22303)
- Construct: AChE from human erythrocytes was used; purchased Sigma-Aldrich; host or cells: human erythrocytes
- Sequence (P22303 32-617 isoform P22303-2 limits assumed): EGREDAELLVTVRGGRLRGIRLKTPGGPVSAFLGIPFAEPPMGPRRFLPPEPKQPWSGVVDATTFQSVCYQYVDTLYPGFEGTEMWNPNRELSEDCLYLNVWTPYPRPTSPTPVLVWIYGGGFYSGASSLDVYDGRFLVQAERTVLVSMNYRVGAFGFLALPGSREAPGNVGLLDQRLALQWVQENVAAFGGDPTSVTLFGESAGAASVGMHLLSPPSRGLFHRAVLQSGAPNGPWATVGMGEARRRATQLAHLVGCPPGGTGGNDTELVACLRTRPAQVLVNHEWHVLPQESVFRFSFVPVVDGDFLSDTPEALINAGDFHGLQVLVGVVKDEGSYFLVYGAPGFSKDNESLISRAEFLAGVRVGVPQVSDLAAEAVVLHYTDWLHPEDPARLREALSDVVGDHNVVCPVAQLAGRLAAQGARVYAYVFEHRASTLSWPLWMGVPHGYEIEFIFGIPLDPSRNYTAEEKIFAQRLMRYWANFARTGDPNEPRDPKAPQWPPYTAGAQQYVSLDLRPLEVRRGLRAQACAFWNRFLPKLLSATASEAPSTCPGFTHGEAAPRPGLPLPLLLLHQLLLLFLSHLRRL
- test_description: biochemical
Scale explanation: pIC50 corresponds to minus log10 of a concentration expressed in moles per litre.

CC(C)(C)c1cc(CNCCNc2c3c(nc4ccccc24)CCC3)cc(C(C)(C)C)c1O [Compound 8a]
5.46

Now let's try a different one.
-- ask Consider the compound CC(C)(C)c1cc(CNCCNc2c3c(nc4ccccc24)CCCCC3)cc(C(C)(C)C)c1O [Compound 8c] . State its measured pIC50.
-- reply 5.72

Reference source for all entries: paper PMC7763995
